# targetOfAssay: cytokine-induced nitric oxide synthase isozyme (Mus musculus)
# Construct: endogenous in cells; host or cells: cultured mouse brain endothelial cells induced with gamma-interferon and tumor necrosis factor
# testDescription: Nitrite formation by cytokine-induced cultured mouse brain endothelial cells (Example V)
# Assay type: cell-based
# statedConditions: mouse brain endothelial cells, 18 hrs with gamma-interferon 1000 units/ml and tumor necrosis factor 5000 units/ml; read-out: dose required for approximately 50% inhibition (ED 50% approx.) of nitrite formation
pIC50: −log10 of the molar value.
metric: pIC50

pIC50 for NN=C(N)NCCCC[C@H](N)C(=O)O [HAA, N^6 -(hydrazinoiminomethyl)-L-lysine] ?
~4.81

###

# targetOfAssay: constitutive isoform of nitric oxide synthase (Rattus norvegicus, UniProt Q62600)
# Construct: from tissue; host or cells: isolated rat aortic rings (2-3 mm)
# Sequence (Q62600 2-1202 limits assumed): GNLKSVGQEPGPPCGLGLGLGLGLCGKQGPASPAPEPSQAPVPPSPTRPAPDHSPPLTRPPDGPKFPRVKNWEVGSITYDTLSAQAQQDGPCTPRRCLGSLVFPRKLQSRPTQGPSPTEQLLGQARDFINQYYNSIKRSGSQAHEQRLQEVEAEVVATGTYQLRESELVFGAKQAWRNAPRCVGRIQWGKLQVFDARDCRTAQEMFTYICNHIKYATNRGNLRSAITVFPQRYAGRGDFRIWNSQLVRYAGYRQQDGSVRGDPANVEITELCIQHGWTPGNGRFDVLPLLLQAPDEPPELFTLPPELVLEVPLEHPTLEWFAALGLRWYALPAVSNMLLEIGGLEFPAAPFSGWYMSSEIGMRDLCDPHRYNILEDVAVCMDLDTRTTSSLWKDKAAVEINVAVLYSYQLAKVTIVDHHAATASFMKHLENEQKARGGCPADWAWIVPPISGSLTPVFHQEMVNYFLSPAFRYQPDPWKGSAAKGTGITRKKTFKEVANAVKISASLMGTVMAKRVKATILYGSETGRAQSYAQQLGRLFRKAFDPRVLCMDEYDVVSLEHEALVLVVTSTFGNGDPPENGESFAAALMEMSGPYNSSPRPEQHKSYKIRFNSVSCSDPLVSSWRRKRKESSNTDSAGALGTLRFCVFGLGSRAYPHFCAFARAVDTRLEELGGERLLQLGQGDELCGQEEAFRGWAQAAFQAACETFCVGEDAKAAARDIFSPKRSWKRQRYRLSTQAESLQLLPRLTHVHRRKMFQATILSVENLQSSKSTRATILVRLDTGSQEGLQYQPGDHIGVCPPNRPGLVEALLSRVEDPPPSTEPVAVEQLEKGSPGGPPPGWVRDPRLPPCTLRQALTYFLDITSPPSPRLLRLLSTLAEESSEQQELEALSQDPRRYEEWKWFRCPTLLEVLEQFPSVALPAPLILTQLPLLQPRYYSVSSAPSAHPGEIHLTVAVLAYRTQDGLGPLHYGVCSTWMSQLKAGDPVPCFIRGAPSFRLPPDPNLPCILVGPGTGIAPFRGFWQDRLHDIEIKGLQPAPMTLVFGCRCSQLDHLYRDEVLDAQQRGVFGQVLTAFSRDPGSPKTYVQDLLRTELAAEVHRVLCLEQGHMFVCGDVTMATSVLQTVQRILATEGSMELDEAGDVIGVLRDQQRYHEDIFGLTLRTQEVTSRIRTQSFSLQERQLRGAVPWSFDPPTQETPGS
# testDescription: Inhibition of acetylcholine relaxation of phenylephrine-contracted rat aortic rings (Example VI)
# statedConditions: rat aortic rings, 0.03 μM phenylephrine, 1 μM acetylcholine; read-out: concentration needed to overcome 50% of the relaxation caused by acetylcholine (ED50)
pIC50: −log10 of the molar value.
So I've got a bunch of compounds here, and I need their pIC50 values.

Kindly state the measured pIC50 obtained for N=C(NCCC[C@H](N)C(=O)O)N[N+](=O)[O-] with constitutive isoform of nitric oxide synthase (Rattus norvegicus, UniProt Q62600).
~5.82

Return pIC50 measured with constitutive isoform of nitric oxide synthase (Rattus norvegicus, UniProt Q62600) given this compound: CNC(=N)NCCC[C@H](N)C(=O)O
~4.99

Recall the recorded pIC50 for NN=C(N)NCCCC[C@H](N)C(=O)O [HAA, N^6 -(hydrazinoiminomethyl)-L-lysine] with constitutive isoform of nitric oxide synthase (Rattus norvegicus, UniProt Q62600) and state it.
~4.99

###

# targetOfAssay: constitutive isoform of nitric oxide synthase (Rattus norvegicus, UniProt Q62600)
# Construct: from tissue; host or cells: isolated rat aortic rings (2-3 mm)
# testDescription: Inhibition of acetylcholine relaxation of phenylephrine-contracted rat aortic rings (Example VI)
metric: IC50

Param readout = IC50; param system = constitutive isoform of nitric oxide synthase (Rattus norvegicus, UniProt Q62600); param query = N/N=C(\N)NCCC[C@H](N)C(=O)O [NAA, N^G -amino-L-arginine, reference compound] ; response: value
~4.2 µM
